Biological target: Sodium channel protein type 9 subunit alpha (Homo sapiens, UniProt Q15858)
Sequence (Q15858 whole entry): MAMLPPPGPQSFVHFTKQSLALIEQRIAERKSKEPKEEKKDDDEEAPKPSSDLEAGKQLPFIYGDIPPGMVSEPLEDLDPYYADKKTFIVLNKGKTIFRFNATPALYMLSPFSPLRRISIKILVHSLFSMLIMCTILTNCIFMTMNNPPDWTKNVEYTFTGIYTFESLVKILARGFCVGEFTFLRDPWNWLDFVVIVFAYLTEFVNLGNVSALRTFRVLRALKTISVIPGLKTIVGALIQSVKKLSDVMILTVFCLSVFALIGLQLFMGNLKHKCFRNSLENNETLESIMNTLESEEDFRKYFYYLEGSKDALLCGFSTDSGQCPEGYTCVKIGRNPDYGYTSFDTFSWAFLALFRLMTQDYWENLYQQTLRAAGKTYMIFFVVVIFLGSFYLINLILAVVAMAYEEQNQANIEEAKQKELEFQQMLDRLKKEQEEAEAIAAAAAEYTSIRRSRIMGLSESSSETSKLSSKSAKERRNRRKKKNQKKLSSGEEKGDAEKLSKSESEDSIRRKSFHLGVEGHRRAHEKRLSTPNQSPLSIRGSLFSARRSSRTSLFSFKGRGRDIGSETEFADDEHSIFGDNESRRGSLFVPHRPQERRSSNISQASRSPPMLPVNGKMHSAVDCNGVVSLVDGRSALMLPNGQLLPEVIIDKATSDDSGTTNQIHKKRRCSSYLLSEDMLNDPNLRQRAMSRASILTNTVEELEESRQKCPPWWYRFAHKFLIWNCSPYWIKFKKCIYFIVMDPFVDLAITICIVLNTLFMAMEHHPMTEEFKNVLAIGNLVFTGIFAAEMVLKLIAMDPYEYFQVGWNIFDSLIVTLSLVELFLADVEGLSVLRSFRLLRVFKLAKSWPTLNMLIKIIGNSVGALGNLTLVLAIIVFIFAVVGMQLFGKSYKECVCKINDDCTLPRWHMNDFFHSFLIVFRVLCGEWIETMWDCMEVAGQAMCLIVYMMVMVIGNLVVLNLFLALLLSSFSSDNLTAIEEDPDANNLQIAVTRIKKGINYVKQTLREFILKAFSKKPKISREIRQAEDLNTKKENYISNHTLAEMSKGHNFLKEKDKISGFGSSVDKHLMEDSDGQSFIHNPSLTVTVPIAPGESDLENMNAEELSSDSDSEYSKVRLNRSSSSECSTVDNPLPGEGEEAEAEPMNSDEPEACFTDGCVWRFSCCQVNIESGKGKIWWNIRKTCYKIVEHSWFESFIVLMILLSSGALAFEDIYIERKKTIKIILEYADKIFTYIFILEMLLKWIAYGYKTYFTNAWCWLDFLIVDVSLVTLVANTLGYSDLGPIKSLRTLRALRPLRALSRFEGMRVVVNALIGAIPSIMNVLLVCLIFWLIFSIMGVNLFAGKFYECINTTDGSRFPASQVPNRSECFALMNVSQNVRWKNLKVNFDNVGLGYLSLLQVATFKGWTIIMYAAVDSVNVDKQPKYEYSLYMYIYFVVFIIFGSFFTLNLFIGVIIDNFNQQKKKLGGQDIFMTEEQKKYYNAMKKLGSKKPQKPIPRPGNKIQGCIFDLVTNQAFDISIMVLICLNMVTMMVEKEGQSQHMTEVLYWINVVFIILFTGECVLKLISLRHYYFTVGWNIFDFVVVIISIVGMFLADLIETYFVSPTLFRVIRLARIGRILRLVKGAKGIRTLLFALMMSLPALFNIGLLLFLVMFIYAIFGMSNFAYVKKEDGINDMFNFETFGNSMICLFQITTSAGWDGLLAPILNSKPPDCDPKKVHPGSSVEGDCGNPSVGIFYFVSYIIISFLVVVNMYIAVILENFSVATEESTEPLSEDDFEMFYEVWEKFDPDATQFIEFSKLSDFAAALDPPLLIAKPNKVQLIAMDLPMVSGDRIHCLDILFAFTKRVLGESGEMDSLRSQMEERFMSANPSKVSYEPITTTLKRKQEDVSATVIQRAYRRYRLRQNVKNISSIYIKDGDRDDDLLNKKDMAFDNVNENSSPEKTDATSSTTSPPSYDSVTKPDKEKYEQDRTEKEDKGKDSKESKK
Assay: In Vitro Assay: 293 cells stably transfected with either Nav 1.7 or with Nav 1.5 were recorded in population patch-clamp mode with the IonWorks® Quattro automated electrophysiology system in accordance with the manufacturer's specifications (Molecular Devices, LLC, Sunnyvale, Calif.). Sodium channel currents were measured in response to a train of depolarizations that induced successively greater inactivation.Cells were held at −110 mV for three seconds (Nav 1.7) or half a second (Nav 1.5) from a holding voltage of −15 mV, then put through a series of 26 pulses of 150 msec duration to −20 mV at a frequency of 5 Hz. Cells were then left unclamped for a period of 3 to 8 minutes while a single concentration of test compound was added. Cells were then reclamped and put through the same voltage protocol. Current at the end of the 26th pulse to −20 mV was subtracted from the peak current evoked by the 26th pulse to −20 mV to correct for leak current.
endpoint name: IC50 (nM)
Numbers only, in nM.

Cn1cc(-c2ccc(C(F)(F)F)c(Cl)c2)c2ccc(S(=O)(=O)Nc3ncns3)cc21
3190

Below are some compounds; for each one, tell me its IC50.
1. Cn1cc(-c2ccc(C#N)c(F)c2)c2ccc(S(=O)(=O)Nc3ncns3)cc21
2. Cn1cc(-c2cccc(OC(F)(F)F)c2)c2ccc(S(=O)(=O)Nc3ncns3)cc21
3. Cn1cc(-c2cccc(C(F)(F)F)c2)c2ccc(S(=O)(=O)Nc3ncns3)cc21
4. Cn1cc(-c2ccc(OC(F)(F)F)cc2)c2ccc(S(=O)(=O)Nc3ncns3)cc21
5. COc1cc(F)ccc1-c1cn(C)c2cc(S(=O)(=O)Nc3ncns3)ccc12

1. 3060
2. 870
3. 3810
4. 4670
5. 338

###

Target: Sodium channel protein type 9 subunit alpha (Homo sapiens, UniProt Q15858)
Test: In Vitro Assay: 293 cells stably transfected with either Nav 1.7 or with Nav 1.5 were recorded in population patch-clamp mode with the IonWorks® Quattro automated electrophysiology system in accordance with the manufacturer's specifications (Molecular Devices, LLC, Sunnyvale, Calif.). Sodium channel currents were measured in response to a train of depolarizations that induced successively greater inactivation.Cells were held at −110 mV for three seconds (Nav 1.7) or half a second (Nav 1.5) from a holding voltage of −15 mV, then put through a series of 26 pulses of 150 msec duration to −20 mV at a frequency of 5 Hz. Cells were then left unclamped for a period of 3 to 8 minutes while a single concentration of test compound was added. Cells were then reclamped and put through the same voltage protocol. Current at the end of the 26th pulse to −20 mV was subtracted from the peak current evoked by the 26th pulse to −20 mV to correct for leak current.
endpoint name: IC50
Answer with the figure and its unit, nothing else.

See these solved cases before continuing.
COc1ccc(-c2cn(C)c3cc(S(=O)(=O)Nc4ncns4)ccc23)c(OC)c1
0.904 µM
Cn1cc(-c2ccccc2)c2ccc(S(=O)(=O)Nc3ncns3)cc21
1.55 µM
Cc1cnc(N)c(-c2cn(C)c3cc(S(=O)(=O)Nc4ncns4)ccc23)c1
5.95 µM

Given the compound `Cc1cc(C#N)ccc1-c1cn(C)c2cc(S(=O)(=O)Nc3ncns3)ccc12` , write its reported IC50.
2.35 µM
